Molecular target: Recombinant human PAD4 (2-663) (Homo sapiens)
Construct: Recombinant human PAD4 (2-663) was expressed in E. coli
Test: PAD4 Inhibition Assay
Conditions: 60 mins pre-incubation at RT; substrate BAEE with CaCl2; fluorescent signal (λex 405/λem 460)
pIC50: −log10 of the molar value.
recorded_endpoint: pIC50

Query :: Which value of pIC50 has been reported for N[C@H]1CN(C(=O)c2cc3cc(Cl)c(F)c(F)c3[nH]2)C[C@H]1O [Example 32] in the records?
Result :: 5.00 to 6.00

Query :: Which value of pIC50 has been reported for C[C@@H]1CNC[C@H]1NC(=O)c1cc2cc(Cl)c(F)c(F)c2[nH]1 [Example 13] in the records?
Result :: 5.00 to 6.00

Query :: Which value of pIC50 has been reported for NCC1(NC(=O)c2cc3cc(Cl)c(F)c(F)c3[nH]2)COC1 [Example 12] in the records?
Result :: 4.00 to 5.00

Query :: Which value of pIC50 has been reported for N[C@@H]1CCN(C(=O)c2cc3cc(Cl)c(F)c(F)c3[nH]2)C1 [Example 1] in the records?
Result :: ≥ 6.00

Query :: Which value of pIC50 has been reported for N[C@@H]1CCN(C(=O)c2cc3cc(Cl)cc(Br)c3[nH]2)C1 [Example 47] in the records?
Result :: 4.00 to 5.00

Query :: Which value of pIC50 has been reported for CN(C(=O)c1cc2cc(Cl)c(F)c(F)c2[nH]1)[C@H]1CCNC1 [Example 51] in the records?
Result :: 4.00 to 5.00

Query :: Which value of pIC50 has been reported for N[C@H]1CN(C(=O)c2cc3cc(Cl)c(F)c(F)c3[nH]2)C[C@@H]1F [Example 37] in the records?
Result :: 5.00 to 6.00

Query :: Which value of pIC50 has been reported for N[C@H]1CN(C(=O)c2cc3cc(I)c(F)c(F)c3[nH]2)C[C@@H]1O [Example 66] in the records?
Result :: 5.00 to 6.00

Query :: Which value of pIC50 has been reported for O=C(N[C@H]1CCNC1)c1cc2cc(Cl)c(F)c(F)c2[nH]1 [Example 26] in the records?
Result :: 5.00 to 6.00

Query :: Which value of pIC50 has been reported for O=C(N[C@@H]1CCCNC1)c1cc2cc(Cl)c(F)c(F)c2[nH]1 [Example 40] in the records?
Result :: 4.00 to 5.00

Query :: Which value of pIC50 has been reported for N[C@H]1CN(C(=O)c2cc3cc(Cl)c(F)c(F)c3[nH]2)C[C@@H]1N [Example 29] in the records?
Result :: 5.00 to 6.00

Query :: Which value of pIC50 has been reported for N[C@H]1CNC[C@@H]1NC(=O)c1cc2cc(Cl)c(F)c(F)c2[nH]1 [Example 30] in the records?
Result :: 4.00 to 5.00

Query :: Which value of pIC50 has been reported for O=C(NC[C@H]1CCNC1)c1cc2cc(Cl)c(F)c(F)c2[nH]1 [Example 62] in the records?
Result :: 4.00 to 5.00

Query :: Which value of pIC50 has been reported for CN(C(=O)c1cc2cc(Cl)c(F)c(F)c2[nH]1)C1CNC1 [Example 52] in the records?
Result :: 4.00 to 5.00

Query :: Which value of pIC50 has been reported for O=C(N[C@H]1CNC[C@H]1O)c1cc2cc(Cl)c(F)c(F)c2[nH]1 [Example 17] in the records?
Result :: 4.00 to 5.00

Query :: Which value of pIC50 has been reported for N[C@@H]1CCN(C(=O)c2cc3cc(F)c(Cl)c(F)c3[nH]2)C1 [Example 4] in the records?
Result :: 5.00 to 6.00

Query :: Which value of pIC50 has been reported for C[C@@H](CN)N(C)C(=O)c1cc2cc(Cl)c(F)c(F)c2[nH]1 [Example 64] in the records?
Result :: 5.00 to 6.00

Query :: Which value of pIC50 has been reported for O=C(c1cc2cc(Cl)c(F)c(F)c2[nH]1)N1CC2(CNC2)C1 [Example 60] in the records?
Result :: 4.00 to 5.00

* * *

Biological target: Recombinant human PAD4 (2-663) (Homo sapiens)
Construct: Recombinant human PAD4 (2-663) was expressed in E. coli
Assay: PAD4 Inhibition Assay
Settings: 60 mins pre-incubation at RT; substrate BAEE with CaCl2; fluorescent signal (λex 405/λem 460)
Recorded IC50 by entry

Use the examples below as a reference point.
molecular_string: O=C(N[C@@H]1CNC[C@@H]1O)c1cc2cc(Cl)c(F)c(F)c2[nH]1
IC50: 1 to 10 µM

molecular_string: O=C(c1cc2cc(Cl)c(F)c(F)c2[nH]1)N1C[C@H]2CNC[C@H]2C1
IC50: 10 to 100 µM

molecular_string: CO[C@H]1CNC[C@@H]1NC(=O)c1cc2cc(Cl)c(F)c(F)c2[nH]1
IC50: 10 to 100 µM

Pending compound:
Query :: Which value of IC50 has been reported for C[C@H](CN)NC(=O)c1cc2cc(Cl)c(F)c(F)c2[nH]1 in the records?
Result :: 10 to 100 µM

* * *

Biological target: Recombinant human PAD4 (2-663) (Homo sapiens, UniProt Q9UM07)
Construct: Recombinant human PAD4 (2-663) was expressed in E. coli
Sequence (Q9UM07 2-663): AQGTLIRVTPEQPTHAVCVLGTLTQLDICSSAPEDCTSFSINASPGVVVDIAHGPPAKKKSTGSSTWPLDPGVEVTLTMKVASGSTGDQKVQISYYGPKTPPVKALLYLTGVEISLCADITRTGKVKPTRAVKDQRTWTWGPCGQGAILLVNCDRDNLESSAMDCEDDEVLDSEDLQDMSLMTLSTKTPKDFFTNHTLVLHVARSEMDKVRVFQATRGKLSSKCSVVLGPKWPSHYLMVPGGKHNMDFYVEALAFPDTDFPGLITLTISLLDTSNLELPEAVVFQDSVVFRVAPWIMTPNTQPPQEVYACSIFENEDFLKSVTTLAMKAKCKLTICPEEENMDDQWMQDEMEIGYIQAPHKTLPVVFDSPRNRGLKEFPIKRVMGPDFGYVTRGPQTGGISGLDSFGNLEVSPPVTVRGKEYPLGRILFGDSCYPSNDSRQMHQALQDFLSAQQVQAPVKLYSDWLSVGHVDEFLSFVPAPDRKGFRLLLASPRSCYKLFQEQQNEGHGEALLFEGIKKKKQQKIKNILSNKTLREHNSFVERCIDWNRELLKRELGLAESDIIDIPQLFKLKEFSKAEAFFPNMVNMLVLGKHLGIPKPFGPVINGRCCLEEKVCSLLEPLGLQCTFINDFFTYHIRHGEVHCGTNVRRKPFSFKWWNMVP
Assay: PAD4 Inhibition Assay
Settings: 60 mins pre-incubation at RT; substrate BAEE with CaCl2; fluorescent signal (λex 405/λem 460)
pIC50: −log10 of the molar value.
Recorded pIC50 by entry

molecular_string: O=C(N[C@@H]1CNC[C@H]1O)c1cc2cc(Cl)c(F)c(F)c2[nH]1
recorded_endpoint: pIC50
test_result: 5.00 to 6.00

Query :: Please state recorded pIC50 (tested on Recombinant human PAD4 (2-663) (Homo sapiens, UniProt Q9UM07)) of N[C@H]1CN(C(=O)c2cc3cc(Br)c(F)c(F)c3[nH]2)C[C@@H]1O
Result :: 5.00 to 6.00

Query :: Please state recorded pIC50 (tested on Recombinant human PAD4 (2-663) (Homo sapiens, UniProt Q9UM07)) of N[C@@H]1CCN(C(=O)c2cc3cc(F)c(F)cc3[nH]2)C1
Result :: 4.00 to 5.00

* * *

Target: Recombinant human PAD4 (2-663) (Homo sapiens, UniProt Q9UM07)
Construct: Recombinant human PAD4 (2-663) was expressed in E. coli
Experiment: PAD4 Inhibition Assay
Settings: 60 mins pre-incubation at RT; substrate BAEE with CaCl2; fluorescent signal (λex 405/λem 460)
recorded_endpoint: IC50

Use the examples below as a reference point.
molecule: N[C@@H]1CCN(C(=O)c2cc3cc(F)ccc3[nH]2)C1 [Example 49]
IC50: 10 to 100 µM

molecule: N[C@@H]1CCN(C(=O)c2cc3cc(Cl)cc(F)c3[nH]2)C1 [Example 2]
IC50: ≤ 1 µM

Query :: Please state recorded IC50 (tested on Recombinant human PAD4 (2-663) (Homo sapiens, UniProt Q9UM07)) of O=C(c1cc2cc(Cl)c(F)c(F)c2[nH]1)N1CC[C@@H]2CNC[C@@H]21 [Example 58]
Result :: 10 to 100 µM

* * *

Molecular target: Recombinant human PAD4 (2-663) (Homo sapiens)
Construct: Recombinant human PAD4 (2-663) was expressed in E. coli
Experiment: PAD4 Inhibition Assay
Details: 60 mins pre-incubation at RT; substrate BAEE with CaCl2; fluorescent signal (λex 405/λem 460)
Recorded IC50 by entry

Use the examples below as a reference point.
molecular_string: C[C@H]1CCNC[C@@H]1NC(=O)c1cc2cc(Cl)c(F)c(F)c2[nH]1
test_result: 10 to 100 µM
--
molecular_string: N[C@@H]1CCN(C(=O)c2cc3cc(Cl)cc(Cl)c3[nH]2)C1
test_result: 10 to 100 µM
--
molecular_string: O=C(N[C@H]1CCCNC1)c1cc2cc(Cl)c(F)c(F)c2[nH]1
test_result: 10 to 100 µM
--
molecular_string: O=C(c1cc2cc(Cl)c(F)c(F)c2[nH]1)N1C[C@H]2CNC[C@H]21
test_result: 1 to 10 µM
--
molecular_string: O=C(c1cc2cc(Cl)c(F)c(F)c2[nH]1)N1CC[C@H]2CNC[C@H]21
test_result: 1 to 10 µM
--
molecular_string: C[C@@H]1CNC[C@@H]1NC(=O)c1cc2cc(Cl)c(F)c(F)c2[nH]1
test_result: ≤ 1 µM

Pending compound:
Query :: Which value of IC50 has been reported for N[C@H]1CN(C(=O)c2cc3cc(Br)c(F)c(F)c3[nH]2)C[C@H]1O in the records?
Result :: 1 to 10 µM

* * *

Target: Recombinant human PAD4 (2-663) (Homo sapiens)
Construct: Recombinant human PAD4 (2-663) was expressed in E. coli
Test: PAD4 Inhibition Assay
Conditions: 60 mins pre-incubation at RT; substrate BAEE with CaCl2; fluorescent signal (λex 405/λem 460)
recorded_endpoint: IC50

Use the examples below as a reference point.
molecular_string: C[C@@H]1NC[C@@H]1NC(=O)c1cc2cc(Cl)c(F)c(F)c2[nH]1
test_result: 1 to 10 µM
//
molecular_string: CC(C)C[C@@H](CN)NC(=O)c1cc2cc(Cl)c(F)c(F)c2[nH]1
test_result: 10 to 100 µM
//
molecular_string: N[C@@H]1CCCN(C(=O)c2cc3cc(Cl)c(F)c(F)c3[nH]2)C1
test_result: 10 to 100 µM
//
molecular_string: C[C@H]1CNC[C@H]1NC(=O)c1cc2cc(Cl)c(F)c(F)c2[nH]1
test_result: ≤ 1 µM
//
molecular_string: O=C(N[C@H]1CNC[C@@H]1O)c1cc2cc(Cl)c(F)c(F)c2[nH]1
test_result: 10 to 100 µM
//
molecular_string: O=C(NC1CNC1)c1cc2cc(Cl)c(F)c(F)c2[nH]1
test_result: ≤ 1 µM
//
molecular_string: CO[C@H]1CN(C(=O)c2cc3cc(Cl)c(F)c(F)c3[nH]2)C[C@@H]1N
test_result: > 100 µM
//
molecular_string: N[C@@H]1CCN(C(=O)c2cc3cc(Br)c(F)c(F)c3[nH]2)C1
test_result: ≤ 1 µM

Pending compound:
Query :: Which value of IC50 has been reported for O=C(c1cc2cc(Cl)c(F)c(F)c2[nH]1)N1CC2(CCNC2)C1 in the records?
Result :: 10 to 100 µM
